test: Multiple oral dosing for 14 days, pharmacokinetics in HCV infected subjects (Example 3); type: in vivo, human; conditions: human, plasma, oral, 400 mg, Day 14, 400 mg TID, mean
measurement_name: Cmax

Enquiry: State the recorded Cmax for this entry: CC(C)(C)NC(=O)N[C@H](C(=O)N1C[C@H]2[C@@H]([C@H]1C(=O)NC(CC1CCC1)C(=O)C(N)=O)C2(C)C)C(C)(C)C (mixture of isomers)
Return: ~550 ng/mL

----------
test: Food-effect crossover bioavailability study, 600 mg fed vs fasted, healthy adult subjects (Example 2); assay type: in vivo, human; details: both sexes, human, plasma, po, 600 mg, 600 mg PO, fed (high-fat breakfast), mean, balanced data
measurement_name: Vd/F (L)
Write down the numeric answer in L and omit the unit.

Enquiry: # get_value(readout='Vd/F', item= CC(C)(C)NC(=O)N[C@H](C(=O)N1C[C@H]2[C@@H]([C@H]1C(=O)NC(CC1CCC1)C(=O)C(N)=O)C2(C)C)C(C)(C)C (mixture of isomers) )
Return: 1150

----------
test: Multiple oral dosing for 14 days, pharmacokinetics in HCV infected subjects (Example 3); type: in vivo, human; details: human, plasma, oral, 100 mg, Day 14, 100 mg BID, mean; read-out: AUC(0-12 hr)
measurement_name: AUC(0-t)

Enquiry: Bench note: what AUC(0-t) did CC(C)(C)NC(=O)N[C@H](C(=O)N1C[C@H]2[C@@H]([C@H]1C(=O)NC(CC1CCC1)C(=O)C(N)=O)C2(C)C)C(C)(C)C (mixture of isomers) show?
Return: 700 ng·h/mL

----------
assay: Food-effect crossover bioavailability study, 600 mg fed vs fasted, healthy adult subjects (Example 2); type: in vivo, human; details: both sexes, human, plasma, po, 600 mg, 600 mg PO, fed (high-fat breakfast), median (range), balanced data
measurement_name: Tmax (h)
Please reply with the bare figure in h and do not write the unit itself.

Enquiry: Please give the measured Tmax for this compound: CC(C)(C)NC(=O)N[C@H](C(=O)N1C[C@H]2[C@@H]([C@H]1C(=O)NC(CC1CCC1)C(=O)C(N)=O)C2(C)C)C(C)(C)C (mixture of isomers)
Return: 5

----------
assay: Phase 1 rising-single-dose pharmacokinetic study in healthy adult subjects (Example 1); assay type: in vivo, human; conditions: human, plasma; single oral dose 800 mg, median, n = 6; read-out: Tmax
measurement_name: Tmax (h)
Answer with a number only, understood to be in h.

Enquiry: I would be grateful if you could share the reported Tmax for CC(C)(C)NC(=O)N[C@H](C(=O)N1C[C@H]2[C@@H]([C@H]1C(=O)NC(CC1CCC1)C(=O)C(N)=O)C2(C)C)C(C)(C)C (mixture of isomers) .
Return: 1.25

----------
test: Phase 1 rising-single-dose pharmacokinetic study in healthy adult subjects (Example 1); assay type: in vivo, human; conditions: human, plasma; single oral dose 100 mg, mean, n = 6
measurement_name: Cmax (ng/mL)
Field format: number, assumed ng/mL, no unit text.

Enquiry: Look up Cmax for this compound: CC(C)(C)NC(=O)N[C@H](C(=O)N1C[C@H]2[C@@H]([C@H]1C(=O)NC(CC1CCC1)C(=O)C(N)=O)C2(C)C)C(C)(C)C (mixture of isomers)
Return: 111

----------
experiment: Food-effect crossover bioavailability study, 600 mg fed vs fasted, healthy adult subjects (Example 2); assay type: in vivo, human; settings: both sexes, human, plasma, po, 600 mg, 600 mg PO, fed, n = 20; read-out: Cmax, model-based (least square) mean
measurement_name: Cmax (ng/mL)
Give the number; ng/mL is assumed, so skip it.

Enquiry: Could you tell me which Cmax is on file for CC(C)(C)NC(=O)N[C@H](C(=O)N1C[C@H]2[C@@H]([C@H]1C(=O)NC(CC1CCC1)C(=O)C(N)=O)C2(C)C)C(C)(C)C (mixture of isomers) ?
Return: 678
